- assay remarks: physchem
- experimental conditions: 37 °C, water, thermodynamic from solid
assay metric: solubility at 24 h (µg/mL)
Field: numeric (µg/mL). Do not append units.

Enquiry: For Cn1ncc2c1Nc1cc(Cl)ccc1N(C(=O)c1ccc(CNC(=O)C3CC3)c(F)c1)C2 [Free base, reference compound] , what is its reported solubility at 24 h?
Return: 5

----------
- assay remarks: Oral availability: plasma exposure in rats after oral dosing of suspensions
- Format: in vivo
- experimental conditions: in vivo, po; rat, suspension in 0.5% HPMC, 10 mg/kg p.o.
assay metric: AUC(0-t) (ng·h/mL)
Field: numeric (ng·h/mL). Do not append units.

Enquiry: For Cc1ccc(S(=O)(=O)O)cc1.Cn1ncc2c1Nc1cc(Cl)ccc1N(C(=O)c1ccc(CNC(=O)C3CC3)c(F)c1)C2 [Tosylate] , what is its reported AUC(0-t)?
Return: 670
